Data credit: patent US9464064B2

Assign IC50 to each entry below.
- TARGET UNDER TEST: HCV NS3 helicase NS3h_1b(con1) (Hepatitis C virus genotype 1b, UniProt Q9WMX2)
- Construct: truncated C-terminally His-tagged NS3 proteins lacking the N-terminal protease, called NS3h; His-tag (C); made in house
- Sequence (Q9WMX2 1192-1657): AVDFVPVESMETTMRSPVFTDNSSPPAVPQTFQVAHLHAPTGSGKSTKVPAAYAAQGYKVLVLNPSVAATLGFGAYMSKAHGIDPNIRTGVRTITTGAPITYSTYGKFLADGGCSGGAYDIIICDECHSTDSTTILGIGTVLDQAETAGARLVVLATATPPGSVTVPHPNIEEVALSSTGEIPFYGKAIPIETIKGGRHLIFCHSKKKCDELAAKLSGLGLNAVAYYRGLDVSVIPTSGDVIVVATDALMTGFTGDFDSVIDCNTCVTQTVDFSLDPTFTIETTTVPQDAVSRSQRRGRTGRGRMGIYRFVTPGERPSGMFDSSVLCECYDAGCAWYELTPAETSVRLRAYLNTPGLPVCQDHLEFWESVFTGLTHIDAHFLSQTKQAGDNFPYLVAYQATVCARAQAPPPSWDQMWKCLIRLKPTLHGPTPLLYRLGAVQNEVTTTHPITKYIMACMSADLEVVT
- MEASUREMENT PROTOCOL: biochemical
- Format: biochemical, hepatitis C virus genotype 1b(con1)
- STATED CONDITIONS: DNA-based MBHA, genotype 1b; read-out: DNA Helicase NS3h_1b IC50 (μM) ± SD
Your answer should be a number followed by the unit of measure.

Q: Recorded IC50 of Cc1ccc2nc(-c3ccc4nc(-c5ccc(N)cc5)sc4c3)sc2c1S(=O)(=O)O , please.
Ans: 45 µM

Q: Recorded IC50 of Cc1ccc2nc(-c3ccc4nc(-c5ccc(NC(=O)c6ccc(Br)cc6)cc5)sc4c3)sc2c1S(=O)(=O)O , please.
Ans: 5 µM

Q: Recorded IC50 of Cc1ccc2nc(-c3ccc4nc(-c5ccc(NC(=O)c6cccc(Cl)c6)cc5)sc4c3)sc2c1S(=O)(=O)O , please.
Ans: 3 µM

Q: Recorded IC50 of Cc1ccc2nc(-c3ccc4nc(-c5ccc(NC(=O)c6ccc(C(F)(F)F)cc6)cc5)sc4c3)sc2c1S(=O)(=O)O , please.
Ans: 2 µM

Q: Recorded IC50 of Cc1ccc2nc(-c3ccc4nc(-c5ccc(NC(=O)c6ccc(N)cc6)cc5)sc4c3)sc2c1S(=O)(=O)O , please.
Ans: 10 µM

Q: Recorded IC50 of Cc1ccc2nc(-c3ccc4nc(-c5ccc(NC(=O)c6ccc(C(C)(C)C)cc6)cc5)sc4c3)sc2c1S(=O)(=O)O , please.
Ans: 8 µM

Q: Recorded IC50 of Cc1ccc2nc(-c3ccc4nc(-c5ccc6nc(-c7ccc8nc(-c9ccc(N)cc9)sc8c7)sc6c5)sc4c3)sc2c1S(=O)(=O)O , please.
Ans: 2 µM

* * *

- TARGET UNDER TEST: HCV NS3 helicase NS3h_1b(con1) (Hepatitis C virus genotype 1b)
- Construct: truncated C-terminally His-tagged NS3 proteins lacking the N-terminal protease, called NS3h; His-tag (C); made in house
- MEASUREMENT PROTOCOL: MBHA screen of NCI mechanistic set library at 20 μM (percent inhibition, compound interference)
- Type: biochemical
- STATED CONDITIONS: compounds at 20 μM, MBHA with DNA substrate; assay interference calculated with Equation 2
Assign Fulfilled to entries whose Int.* (Ratio) (Interference) meets or exceeds 0.9 Ratio; assign Not fulfilled to the rest.

Q: Determine whether measured Int.* (Ratio) (Interference) meets or exceeds 0.9 Ratio for CCCCCn1cc2c3c(cccc31)C1C=C(C)CN(C)[C@@H]1C2.Cc1ccc(C(=O)OC(C(=O)O)C(OC(=O)c2ccc(C)cc2)C(=O)O)cc1 (stereo not drawn) [Compound 600681]
Ans: Fulfilled

Q: Determine whether measured Int.* (Ratio) (Interference) meets or exceeds 0.9 Ratio for Cc1cc2cc3cc(C)c(N)cc3nc2cc1N [Compound 13973]
Ans: Not fulfilled

Q: Determine whether measured Int.* (Ratio) (Interference) meets or exceeds 0.9 Ratio for Cc1cccc(NC(=O)/C=C/c2ccc([N+](=O)[O-])cc2)c1 [Compound 139109]
Ans: Fulfilled

Q: Determine whether measured Int.* (Ratio) (Interference) meets or exceeds 0.9 Ratio for C=CC(=O)N1C/C(=C\c2ccccc2)C(=O)/C(=C/c2ccccc2)C1 [Compound 632841]
Ans: Not fulfilled

Q: Determine whether measured Int.* (Ratio) (Interference) meets or exceeds 0.9 Ratio for CN(C)[C@@H]1C(=O)C(C(N)=O)=C(O)[C@@]2(O)C(=O)C3=C(O)c4c(O)cccc4C[C@H]3C[C@@H]12 [Compound 51812]
Ans: Fulfilled

Q: Determine whether measured Int.* (Ratio) (Interference) meets or exceeds 0.9 Ratio for CC(C)(C)OC(=O)NC(Cc1ccccc1)C(=O)OCN1C(=O)C2C3C=CC(C2C1=O)C1C2C(=O)N(COC(=O)C(Cc4ccccc4)NC(=O)OC(C)(C)C)C(=O)C2C31 (stereo not drawn) [Compound 607316]
Ans: Fulfilled

Q: Determine whether measured Int.* (Ratio) (Interference) meets or exceeds 0.9 Ratio for COC(=O)[C@@]12OC[C@]34[C@H]([C@@H](O)[C@@H]1O)[C@@]1(C)CC(=O)C(O)=C(C)[C@@H]1C[C@H]3OC(=O)[C@H](OC(=O)C=C(C)C)[C@@H]24 [Compound 172924]
Ans: Fulfilled

Q: Determine whether measured Int.* (Ratio) (Interference) meets or exceeds 0.9 Ratio for CN(C)c1ccc(/C=c2/sc3nc(=O)c(-c4ccccc4NC(=O)C(F)(F)F)nn3c2=O)cc1 [Compound 623095]
Ans: Not fulfilled

Q: Determine whether measured Int.* (Ratio) (Interference) meets or exceeds 0.9 Ratio for CCN(CC)c1ccc2cc3ccc(=[N+](CC)CC)cc-3oc2c1.[Cl-] [Compound 44690]
Ans: Not fulfilled

Q: Determine whether measured Int.* (Ratio) (Interference) meets or exceeds 0.9 Ratio for CN1CCC23c4ccccc4NC1C21CCN(C)C3Nc2ccccc21 [Compound 99016]
Ans: Fulfilled

Q: Determine whether measured Int.* (Ratio) (Interference) meets or exceeds 0.9 Ratio for [Cl-].c1csc(C[N+]23CN4CN(CN(C4)C2)C3)c1 [Compound 49660]
Ans: Fulfilled
